# System: E. coli WT-RFP/H69-GFP mixed culture, fluorescence, 24 h
# testName: growth inhibition of wild-type RFP E. coli, dose response, H69 mutant GFP, cherry-pick (AID 977623)
# assayConditions: E. coli WT-RFP/H69-GFP mixed culture, 24 h; measured here: total growth OD600
Results filed as inconclusive are left out.
valueKind: AC50 (µM)
Report as a plain number; the unit µM is understood.

Worked examples follow.
COc1ccc(NC(=O)c2ccc(-c3ccc([N+](=O)[O-])cc3)o2)cc1; 5.6
COc1ccc(Cn2c(-c3ccc(Cl)cc3)c[n+]3ccccc23)cc1; 47.2
O=C(O)c1cc([N+](=O)[O-])ccc1NCc1ccccc1; 15.2
CCOC(=O)c1c(NC(=O)Cc2cccs2)sc(C)c1C; 9.61
Cc1ccc(C)c(NC(=O)CSc2nc3nc(-c4cccs4)cc(C(F)(F)F)c3c(=O)[nH]2)c1; 10.3

Let us examine a further case.
Return value of AC50 for input "COc1cc2c(cc1[N+](=O)[O-])-c1ccc([N+](=O)[O-])cc1C2" , no commentary. 2.76
